# TEST: NCI Yeast Anticancer Drug Screen. Data for the mlh1 rad18 strain (AID 175)
# TEST CONDITIONS: S. cerevisiae mlh1 rad18 strain growth inhibition; at 50.0 µM; stronger effect = higher value
This is part of a sample that, as a whole, favours compounds with a hit. Of some 79,000 tested, about 15% had one in any assay. Activity calls are given as the source filed them. Cut-off read from the data, not from the text of the source: active = growth inhibition above about 70%; inactive = the rest.
Quick reference for growth inhibition among some compounds

COMPOUND	growth inhibition
Cc1cccc(Nc2nnc(Nc3cccc(C)n3)c3ccccc23)n1	4% (inactive)
COc1cccc(/C=C2\CCC(C)(CN(C)C)C2=O)c1 (centres undefined)	29.9% (inactive)
CC1(C)CCC(C2=CC(=O)c3c(O)ccc(O)c3C2=O)O1 (centres undefined)	-2.8% (inactive)
O=C1OC2(CC1n1cnc3ccccc3c1=O)C(=O)Nc1ccccc12 (centres undefined)	11.2% (inactive)
CNC(=O)SCC(NC(=O)CCC(N)C(=O)O)C(=O)NCC(=O)O (centres undefined)	36.3% (inactive)
Nc1nc(Cc2ccccc2)cs1	12.6% (inactive)
CCCCOC(C)OCCCC	-17% (inactive)
CN(C(=O)C12C3C4C1C1C2C3C41C(=O)N(C)C(C)(C)C)C(C)(C)C (centres undefined)	-2.4% (inactive)
O=C(CCC(=O)Nc1ccc(Cl)cc1)CC(=O)c1ccc2ccccc2c1	-29.9% (inactive)
CCC(C)C(NN)C(=O)O (centres undefined)	-37.3% (inactive)
CC(C)(CCC(=O)O)CCC(=O)O	36% (inactive)
CC(=NCCN=C(C)c1ccc(Br)cc1)c1ccc(Br)cc1	1.1% (inactive)
CC1=NN(C(=O)c2ccc(Cl)cc2)C(=O)/C1=C/c1ccc(Cl)cc1	-44.2% (inactive)
CCOC(=O)C1=C(Nc2ccccc2)OC/C1=N\NC(=O)Cc1ccccc1	-19.1% (inactive)
SCc1ccc(-c2ccc(CS)cc2)cc1	23.3% (inactive)
CCCCCCCCC(=O)N1CCOCC1	8.8% (inactive)
CC(=O)NC(C)Cc1ccc(C(=O)O)cc1 (centres undefined)	12.6% (inactive)
CC(=O)Nc1nnc(SCc2ccccc2)s1	-20.6% (inactive)
O=C1C(O)=C(Cl)C(=O)C(OC2=C(Cl)C(=O)C(OC3=C(Cl)C(=O)C(OC4=C(Cl)C(=O)C(Cl)=C(Cl)C4=O)=C(Cl)C3=O)=C(Cl)C2=O)=C1Cl	22.3% (inactive)
CCC1=C(C)/C(=C/c2[nH]c(C)cc2C)N=C1C	12.2% (inactive)
COC(=O)C(C)Oc1ccc(O)cc1 (centres undefined)	10.4% (inactive)
Cn1ncc2c(Nc3cc(Cl)ccc3Cl)ncnc21	-1.95% (inactive)
CC(=O)Nc1ccc(S(=O)(=O)CCS(=O)(=O)c2ccc(NC(C)=O)cc2)cc1	-9.45% (inactive)
O=C(Nc1ccc([N+](=O)[O-])c2c1C(=O)c1ccccc1C2=O)c1ccccc1	-2.9% (inactive)

---

# TEST: NCI Yeast Anticancer Drug Screen. Data for the rad50 strain (AID 155);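 note: 0% = growth of vehicle-only cultures of the same strain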
# TEST CONDITIONS: S. cerevisiae rad50 strain growth inhibition; at 50.0 µM; stronger effect = higher value
This is part of a sample that, as a whole, favours compounds with a hit. Of some 79,000 tested, about 15% had one in any assay.
PARAMETER: growth inhibition (%)

COMPOUND	PARAMETER	REPORTED RESULT
O=c1oc(-c2ccccc2)nc2c1CCCS2	growth inhibition	-1.2
CC(C)(C)C(C(N)=O)C(C)(C)C	growth inhibition	4.4
Cc1ccc(NC(N)=O)cc1	growth inhibition	-33.5
COc1ccc(C2Cc3cc(OC)c(OC)cc3C(c3ccccc3)N2)cc1OC (stereo unspecified)	growth inhibition	8.7
CN1CCC2(CC1)C(=NC1CCCCC1)NC(=O)N2c1ccccc1	growth inhibition	-26.4
COc1cc2c(cc1OC)C(=O)/C(=C/c1ccc([N+](=O)[O-])cc1)CC2	growth inhibition	-50.2

---

# TEST: NCI Yeast Anticancer Drug Screen. Data for the cln2 rad14 strain (AID 165);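 note: 0% = growth equal to vehicle treated cultures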
# TEST CONDITIONS: S. cerevisiae cln2 rad14 strain, at 50.0 µM, stronger effect = higher value
# Procedure: Growth inhibition of yeast strains with defined genetic alterations is measured as a screen for potential anti-cancer activity. Selected strains with alterations in DNA damage repair or cell cycle control were exposed to compounds and growth inhibition was measured relative to vehicle treated controls. The strain used in this assay is cln2 rad14
This is part of a sample that, as a whole, favours compounds with a hit. Of some 79,000 tested, about 15% had one in any assay.
PARAMETER: growth inhibition (%)

COMPOUND	REPORTED RESULT
CC1=CC(=O)C(=CN2C(=O)/C(=C\c3cccnc3)NC2=S)C(=O)O1	-20.1
OC1(Cl)c2cccc3cccc(c23)C1(O)Cl (stereo not given)	-9.45
Cc1cccc(C2=C/C(=C(\SS/C(C(=O)c3ccc(OCC(=O)O)c(Cl)c3Cl)=C3\C=C(c4cccc(C)c4)SS3)C(=O)c3ccc(OCC(=O)O)c(Cl)c3Cl)SS2)c1	1.95
CCOC(=O)C(NC(=O)c1ccccc1)(Nc1ccc(S(=O)(=O)Nc2ncccn2)cc1)C(F)(F)F (stereo not given)	-4.55
CCC(C#N)(C(=O)OC)/C(C)=C/C(C)C (stereo not given)	-7.25

---

# TEST: NCI Yeast Anticancer Drug Screen. Data for the rad50 strain (AID 155);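 note: 0% = growth of vehicle-only cultures of the same strain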
# TEST CONDITIONS: S. cerevisiae rad50 strain growth inhibition; at 50.0 µM; stronger effect = higher value
Compounds without any hit were thinned out: in the full panel of roughly 79,000, 15% have a hit.
Quick reference for growth inhibition among some compounds
PARAMETER: growth inhibition (%)

COMPOUND	REPORTED RESULT
CCOC(=O)N1OC2C=CC1CC2 (configuration not stated)	-7.45
CCC(/C=N\NC(=O)CCCC(=O)N/N=C/C(CC)CC)CC	-0.5
O=C(O)c1ccc2c(c1)S(=O)(=O)c1ccccc1C2=O	14.1
NC1=NC(c2ccccc2)C2=C(N1)C(=O)N(Cc1ccccc1)C2 (configuration not stated)	5.65
OCCN(CCO)c1ncnc2c1ncn2-c1ccc(CCCl)cc1	5.3
Cc1cc(C)c(C(CC(=O)O)C(CC(=O)O)c2c(C)cc(C)cc2C)c(C)c1 (configuration not stated)	-0.25
CC(C)(C)c1ccc(OS(=O)(=O)c2ccc(Cl)c(Cl)c2)cc1	0.4
CCCCCCCCCCC1OCC(CC)([N+](=O)[O-])CO1 (configuration not stated)	10.2
CC(C)=CCNc1ncnc2c1c(C#N)cn2C1OC(CO)C(O)C1O (configuration not stated)	-1.2
O=C(NO)/C(CC(=O)c1ccc(O)cc1)=N\O	-8.9
CC(=C/C=C/C=C(C)\C=C\C=C(\C)C(=O)O)/C=C/C=C(/C)C(=O)O	18.1
COC(=O)c1cc2ccccc2c2c3c(ccc12)OCO3	9.4
O=c1ccc2cc3c(cc2[nH]1)OCO3	2.5
CCOC(=O)C(=CC(C)(C)C)C(=O)OCC	3.9
Cc1ccc(N=Nc2sc(N)nc2-c2ccc(Cl)cc2)cc1	28.6
BrCCCOc1ccccc1Br	14.6
O=C1CCCCCCCC(=O)Nc2ccc3nc4ccccc4c(c3c2)SCCCCCCCCCCCCSc2c3ccccc3nc3ccc(cc23)N1	-9.85
CCCCCCCCCCCCCCCCCCOCCCCCC	-8.65
NCC1CCC(C(=O)O)CC1 (configuration not stated)	-14.4
COc1cc2c(c(OC)c1OC)CCCC2=O	0.2
COC(=O)C(=[N+]=[N-])C(=O)c1ccccc1[N+](=O)[O-]	30.5
COC1=CC(=C(c2ccc(O)c(OC)c2)c2ccc(O)c(OC)c2)C=CC1=O	-2.75
CCCCCCN(CCCCCC)CC(O)c1c(Cl)ccc2ccccc12 (configuration not stated)	99.1
NC(=O)C1CCCN1C(=O)C(Cc1cnc[nH]1)NC(=O)C1CCCC1 (configuration not stated)	-46.4
CN(N)c1cc(=O)n(C)c(=O)n1C	-1.35
CCOC(=O)/C=C/CC1CCNC1 (configuration not stated)	-22.8
CC(=O)OC1CCC2(C)C3CCC4(C)C(C(C)CCCC(C)C)CCC4C3CC(=O)C23CC13 (configuration not stated)	32
COC(=O)c1ccc2c(c1)CC1(C2)Cc2cc3c(cc2C1=O)CCC3 (configuration not stated)	-3.35
CSC(C(OC(C)=O)C(OC(C)=O)C(OC(C)=O)C(COC(C)=O)OC(C)=O)n1cnc2c(=S)nc[nH]c21 (configuration not stated)	26.4
CC12CCC(=O)C=C1CCC1C2C(=O)CC2(C)C1CCC2(O)C(=O)Cn1c(=O)cc[nH]c1=O (configuration not stated)	10.1
CN(N=O)c1nc2c(C(N)=O)ncn2s1	10.2
CC1=C(C)CC2(CC1)C(=O)C1(CCC(C)=C(C)C1)C2=O (configuration not stated)	25.2
O=C1c2ccccc2C(O)(c2ccccc2)c2ccccc21	13.4
N#CCCN(CCC#N)c1nc(-c2ccccc2)nc(N(CCC#N)CCC#N)n1	-1.95
CN(C)CCCNc1nc(Cl)nc2nc(-c3ccccc3)c(-c3ccccc3)nc12	50.2
C1CN(SSN2CCSCC2)CCS1	-2.1
O=C1C(=O)c2ccccc2C(O)=C1c1ccccc1	28.6
CC(=O)OCC1OC(n2cnc3c(N)ncnc32)CC1OC(C)=O (configuration not stated)	-1.7
CS(=O)(=O)N(CCC#N)c1ccc(/C=N/NC(=O)CC(=O)Nc2cccc(Cl)c2)cc1	-6.75
O=[N+]([O-])c1ccc(/C(=C/c2ccc(Cl)cc2Cl)S(=O)(=O)C(Cl)Cl)o1	98.3
CC(C)(C)c1ccccc1OC(=O)Nc1ccc(F)cc1	3.65
CC(=O)Nc1ccc(S(=O)(=O)Nc2c(-c3ccccc3)[nH]c(C)c2C(C)=O)cc1	1.65
CCCCCCCC(CCCCCCC)C(=O)OCCO	-7.4
CC1=NC2c3c(-c4ccc(Cl)cc4)cn(-c4ccc(C)cc4)c3N=CN2N1 (configuration not stated)	7.75
CC(=O)N(Cl)c1ccc(N=Nc2ccccc2)cc1F	24.5
CCCCCCSC#N	34.8
C/C(=C\CNc1ncnc2c1ncn2CCC(=O)OC(C)(C)C)CO	-12.3

Value source: PubChem BioAssay (NCI)
